# Tested on: E. coli TESEC Alr+ wild-type control
# method-description: growth (OD600 after 10 h); higher = more growth (less inhibition)
# test-parameters: compound 0.1 mM; raw OD600 reference: median of DMSO wells 0.241, cell-free background 0.041
Structures can show the parent of a compound that is named as a salt.
Some compounds, each annotated with its measured growth.
Please give the numeric answer without any surrounding text.

Worked examples follow.
Challenge: Return reported growth; argument: COC(=O)C1=C(C#N)NC(C)=C(C(=O)OC(C)C)C1c1cccc([N+](=O)[O-])c1 (centres undefined)
Response given: 0.148

Challenge: What do you get for CCN1CCCC1CNC(=O)c1cc(S(N)(=O)=O)ccc1OC (centres undefined) [Sulpiride] ?
Response given: 0.25

Challenge: Thanks! And `C[C@]12C=CC(=O)C=C1CC[C@@H]1[C@@H]2[C@@H](O)C[C@@]2(C)[C@H]1CC[C@]2(O)C(=O)CO` ?
Response given: 0.213

Challenge: Quick one: CCOC(=O)O[C@]1(C(=O)OCCl)CC[C@H]2[C@@H]3CCC4=CC(=O)C=C[C@]4(C)[C@H]3[C@@H](O)C[C@@]21C [Loteprednol etabonate]
Response given: 0.135

Challenge: Can you check `N[C@@H](Cc1cc(I)c(Oc2ccc(O)c(I)c2)c(I)c1)C(=O)O` next?
Response given: 0.18

***
Challenge: Can you share its growth? I mean this compound: `CCCCOc1ccc(CC(=O)NO)cc1`
Response given: 0.204

Challenge: What do we get for CN1C(=O)CC(c2ccccc2)C1=O (centres undefined) [Phensuximide] ?
Response given: 0.244

Challenge: Also COc1ccc([C@@H]2Sc3ccccc3N(CCN(C)C)C(=O)[C@@H]2OC(C)=O)cc1 [Diltiazem hydrochloride] , if possible.
Response given: 0.184

Challenge: Another compound to check: C[C@]12CC[C@@H]3c4ccc(O)cc4C[C@@H](CCCCCCCCC[S+]([O-])CCCC(F)(F)C(F)(F)F)[C@H]3[C@@H]1CC[C@@H]2O (some centres undefined)
Response given: 0.265

Challenge: Could you do the same for `N=C(NCCCCCCNC(=N)NC(=N)Nc1ccc(Cl)cc1)NC(=N)Nc1ccc(Cl)cc1` , please?
Response given: 0.0446

Challenge: // repeat for CN(C)CCc1c[nH]c2ccc(Cn3cncn3)cc12 [Rizatriptan benzoate] and report
Response given: 0.24

Challenge: Same read-out for `CSc1nc2cc(Cl)c(Oc3cccc(Cl)c3Cl)cc2[nH]1` ?
Response given: 0.0427

Challenge: Do the same for `Nc1nc(O)c2ncn(CCC(CO)CO)c2n1` please
Response given: 0.25

Challenge: Next compound up: O=C(CCNNC(=O)c1ccncc1)NCc1ccccc1 [Nialamide]
Response given: 0.237

Challenge: Quick one: `CN1C(=O)OC(C)(C)C1=O`
Response given: 0.242

Challenge: Repeat with COc1cc(NC(C)CCCN)c2ncccc2c1 (centres undefined) [Primaquine diphosphate]
Response given: 0.0466

Challenge: Next compound: O=C(Nc1ccccc1)OCC(CN1CCCCC1)OC(=O)Nc1ccccc1 (centres undefined) [Diperodon hydrochloride]
Response given: 0.193

Challenge: Same for CCC(C)n1ncn(-c2ccc(N3CCN(c4ccc(OCC5COC(Cn6cncn6)(c6ccc(Cl)cc6Cl)O5)cc4)CC3)cc2)c1=O (centres undefined)
Response given: 0.25

Challenge: Now this one: CN(C)C(=N)NC(=N)N [Metformin hydrochloride]
Response given: 0.253

Sourced from the supplement of paper PMC9262897
